Please go through the items and note down their protein stability index.
B1: IMPA1 (parent)
chain: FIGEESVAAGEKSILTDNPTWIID

Variants of: B1
Experiment description: protein stability index of a GFP-peptide fusion (GPS, HEK-293T) (PSI 1-6); higher = more stable;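 also: lentivirally expressed fusions sorted by FACS into six bins by GFP to DsRed ratio, PSI derived from sequencing read proportions per bin multiplied by bin number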
Experimental setup: c terminus: a fixed tail appended

IN: Which protein stability index is listed for I14S ?
OUT: 2.32

IN: May I ask what protein stability index has been recorded for T20W ?
OUT: 2.03

IN: So what does the record say about protein stability index for F1D ?
OUT: 5.07

IN: Could you share which protein stability index value was measured for A8S ?
OUT: 2.3

IN: Name the reported protein stability index value associated with the variant S6Q
OUT: 2.42

IN: Using the record for T16Q , report its protein stability index.
OUT: 2.19

IN: Reported protein stability index, variant G10E : ____
OUT: 2.8

IN: What protein stability index value was documented for this variant, A8N ?
OUT: 2.23

IN: What value of protein stability index has been reported for the following variant? A8K
OUT: 2.35

IN: Find the recorded protein stability index belonging to I23A and report it.
OUT: 1.84

IN: Query: protein stability index; subject: P19Y
OUT: 2.18

IN: GET /values?readout=protein stability index&item= V7A
OUT: 2.46

IN: Would you kindly share the measured protein stability index for G10R ?
OUT: 1.97

IN: Give its protein stability index value. Item: I23L
OUT: 3.6

IN: Consider the variant shown here: L15M What is its recorded protein stability index?
OUT: 2.15

IN: Looking for the measured protein stability index of I22A , can you help?
OUT: 1.76

IN: Which protein stability index value is on record for G3H ?
OUT: 1.86

IN: What value of protein stability index has been recorded for this entry: E5I
OUT: 3.46

IN: Entry under review: W21D . Reported protein stability index?
OUT: 4.85

IN: Suppose we examine the variant I22K ; what protein stability index value has been reported?
OUT: 2.48

IN: May I ask what protein stability index has been recorded for F1Y ?
OUT: 2.54

IN: Data request, read-out protein stability index, for K12V
OUT: 2.11

IN: For the variant A8W , what protein stability index is on record?
OUT: 1.74

IN: What value of measured protein stability index is listed for S13F ?
OUT: 1.97

IN: Recorded protein stability index of E11G , please.
OUT: 1.96

IN: Could you tell me which protein stability index is on file for T20P ?
OUT: 2.25

IN: Which protein stability index value is on record for E4Y ?
OUT: 1.9

IN: Returns the measured protein stability index for the input variant. Input: E11L
OUT: 1.77

IN: Sample V7T — what was its protein stability index?
OUT: 2.28

IN: # get_value(readout='protein stability index', item= T20G )
OUT: 2.71

IN: Using the record for W21A , report its protein stability index.
OUT: 4.65

IN: Which protein stability index is listed for I2E ?
OUT: 4.82

IN: Quick one: protein stability index for A9S ?
OUT: 1.95

IN: Can you share its protein stability index? I mean this variant: E11H
OUT: 1.7

IN: For the variant shown here, N18Y , give the reported protein stability index.
OUT: 2.62

IN: Name the reported protein stability index value associated with the variant E4K
OUT: 1.83

IN: Recorded protein stability index of P19N , please.
OUT: 2.89

IN: Param item = D24V ; retrieve measured protein stability index.
OUT: 1.86

IN: Would you mind telling me what protein stability index value was observed for D24P ?
OUT: 2.04

IN: # input variant: I2V ; wanted: its protein stability index
OUT: 1.1

IN: Reported protein stability index for N18T : what is it?
OUT: 2.84

IN: Which protein stability index value belongs to A8V ?
OUT: 2.52

IN: If you can, please state the reported protein stability index value of E4V .
OUT: 1.53

IN: I have this variant here, G3M , and I need its recorded protein stability index.
OUT: 1.78

IN: Would you mind telling me what protein stability index value was observed for T16W ?
OUT: 1.72

IN: Record request: protein stability index value, item D17N
OUT: 1.85

IN: Fill blank: measured protein stability index of the variant A9T is ____.
OUT: 2.1

IN: I have this variant here, S6E , and I need its recorded protein stability index.
OUT: 3.07

IN: Query (variant): A8R ; field requested: protein stability index
OUT: 1.62

IN: Name the recorded protein stability index for V7N .
OUT: 2.4

IN: Need protein stability index of I2C , thanks.
OUT: 2.27

IN: What does the record list as protein stability index for F1N ?
OUT: 4.45

IN: Please report the recorded protein stability index for N18C .
OUT: 2.64

IN: Entry L15A : reported protein stability index = ?
OUT: 2.33

IN: I'd like to know its protein stability index. The variant in question is G3D
OUT: 3.27

IN: I'd like to know its protein stability index. The variant in question is W21G
OUT: 4.71

IN: Fill in the blank: the reported protein stability index of F1E is ____.
OUT: 4.81

IN: Query: protein stability index; subject: W21N
OUT: 4.57

IN: Look at this variant and give its reported protein stability index. V7P
OUT: 2.19

IN: # lookup: protein stability index of I23V
OUT: 2.02

IN: So what's the measured protein stability index for this one? F1A
OUT: 4.65

IN: Any idea what protein stability index was measured for E5H ?
OUT: 1.93

IN: I would be grateful if you could share the reported protein stability index for A9Y .
OUT: 2.59

IN: What value of measured protein stability index is listed for D24H ?
OUT: 2.01

IN: Please look up its protein stability index: P19G
OUT: 3.13

IN: For the variant G10C , what protein stability index is on record?
OUT: 2.21

IN: For I14D , what is its reported protein stability index?
OUT: 2.34

IN: protein stability index lookup needed for I2T , thanks.
OUT: 2.83

IN: Returns the measured protein stability index for the input variant. Input: I14P
OUT: 2.33

IN: Which protein stability index value is on record for L15P ?
OUT: 2.57

IN: Need protein stability index, item T20M
OUT: 1.82

IN: Recorded protein stability index for I22S , please?
OUT: 2.35

IN: # input variant: I23T ; wanted: its protein stability index
OUT: 1.92

IN: Look up protein stability index: D24M
OUT: 2.05

IN: Could you tell me which protein stability index is on file for K12N ?
OUT: 1.89

IN: Look up protein stability index for this variant: E4L
OUT: 1.8

IN: So what's the measured protein stability index for this one? I14G
OUT: 2.38

IN: Fill in the blank: the reported protein stability index of S13Q is ____.
OUT: 1.99

IN: Bench note: what protein stability index did S13P show?
OUT: 2.02

IN: # query: protein stability index of entry T16D
OUT: 3.17

IN: # lookup: protein stability index of P19F
OUT: 2.35

IN: Look up protein stability index: N18A
OUT: 3.01

IN: Return reported protein stability index; argument: D17R
OUT: 1.68

IN: Could you tell me which protein stability index is on file for E5K ?
OUT: 1.88

IN: For the variant P19W , what protein stability index is on record?
OUT: 1.96

IN: Would you kindly share the measured protein stability index for I23N ?
OUT: 3.55

IN: Return reported protein stability index; argument: G3Y
OUT: 1.88
